Numbers sourced from PubChem BioAssay (NCI).

test system: SR leukemia; assay: NCI tumour cell line growth inhibition, 48 h
value_kind: TGI (µM)

{"compound": "COc1cc2ccn3c4cc(OC)c(OC)cc4cc3c2cc1OC", "test_target": "SR leukemia", "value_kind": "TGI", "readout_unit": "µM", "comparison_sign": ">", "readout_value": 100}
{"compound": "CC(=O)NC1C(OCc2ccccc2)OC(COC(=O)CCCCCCCCCCNC(=O)c2cccc3c(=O)c4ccccc4[nH]c23)C(O)C1OC(C)C(=O)NC(C)C(=O)NC(CCC(N)=O)C(N)=O (stereo not drawn)", "test_target": "SR leukemia", "value_kind": "TGI", "readout_unit": "µM", "comparison_sign": ">", "readout_value": 100}
{"compound": "Cc1cc(NS(=O)(=O)c2ccc(Nc3c4ccccc4nc4c(C(=O)NCCN(C)C)ccc(Cl)c34)cc2)no1", "test_target": "SR leukemia", "value_kind": "TGI", "readout_unit": "µM", "comparison_sign": "=", "readout_value": 10.8}
{"compound": "O=C1C=CC(=O)c2c(O)c(N3CCSCC3)c(Cl)c(O)c21", "test_target": "SR leukemia", "value_kind": "TGI", "readout_unit": "µM", "comparison_sign": "=", "readout_value": 1.24}
{"compound": "CC1=NN(C(=O)CC(=O)Nc2cccc(Cl)c2)C(=O)C1N=Nc1ccc(S(N)(=O)=O)cc1 (stereo not drawn)", "test_target": "SR leukemia", "value_kind": "TGI", "readout_unit": "µM", "comparison_sign": ">", "readout_value": 100}
{"compound": "Cc1ccc(NC(=O)CCC(=O)C2CC(=O)CC/C2=N\\NC(=O)c2cc3ccccc3cc2O)cc1C (stereo not drawn)", "test_target": "SR leukemia", "value_kind": "TGI", "readout_unit": "µM", "comparison_sign": "=", "readout_value": 97.4}
{"compound": "O=c1oc(-c2ccc(O)c(O)c2)cc2cc(O)cc(O)c12", "test_target": "SR leukemia", "value_kind": "TGI", "readout_unit": "µM", "comparison_sign": ">", "readout_value": 100}
{"compound": "Cc1ccc2c(c1)c(=O)c1c(NCCN(C)C)ccc3nnn2c31", "test_target": "SR leukemia", "value_kind": "TGI", "readout_unit": "µM", "comparison_sign": "=", "readout_value": 7.67}

====

Measured GI50, listed per entry.
test system: MDA-MB-231 breast; assay: NCI tumour cell line growth inhibition, 48 h

{"compound": "O=c1oc(-c2ccc(O)c(O)c2)cc2cc(O)cc(O)c12", "GI50": "44.7 µM"}
{"compound": "O=C1OC(c2ccc(O)cc2)(c2ccc(O)cc2)c2cccc3cccc1c23", "GI50": "14.2 µM"}
{"compound": "CN1CCCC1c1cccnc1.O=C(O)c1ccccc1O.O=C([O-])c1ccccc1[OH2+].O=C([O-])c1ccccc1[OH2+].O=C([O-])c1ccccc1[OH2+].[Mn+2] (stereo not drawn)", "GI50": "> 100 µM"}

====

system: SNB-75 CNS; assay: NCI tumour cell line growth inhibition, 48 h

{"molecule": "O=[N+]([O-])c1ccc2nc3ccc([N+](=O)[O-])cn3c2c1", "TGI": "> 100 µM"}
{"molecule": "COc1cc[nH]c1/C=C1\\C(=O)Nc2ccc(F)c(C#CC3(O)CCOCC3)c21", "TGI": "1.94 µM"}
{"molecule": "Cc1cc(S(=O)(=O)Nc2n[nH]c(Nc3ccccc3)n2)c(S)cc1Cl", "TGI": "> 10 µM"}
{"molecule": "c1ccc2c3c(ccc2c1)CSCc1ccc2ccccc2c1-3", "TGI": "> 100 µM"}
{"molecule": "COc1ccc(S(=O)(=O)N/N=C/C(=O)O)cc1", "TGI": "> 1250 µM"}
{"molecule": "COc1cn2c(cc1=O)COc1ccc(-c3ccccc3)cc1-2", "TGI": "> 100 µM"}
{"molecule": "O=c1[nH]c(=O)n(C2CC(O)C(CO)O2)cc1C#Cc1ccc(C(F)(F)F)cc1 (stereo not given)", "TGI": "> 100 µM"}
{"molecule": "CN(C)c1ccc(/C=C(\\NC(=O)c2ccccc2)C(=O)Nc2ccccc2C(=O)NN2C(=O)CSC2c2ccc(N(C)C)cc2)cc1 (stereo not given)", "TGI": "> 100 µM"}
{"molecule": "COC(=O)Cc1c(C2=Nc3ccccc3C2(O)CC(=O)OC)[nH]c2ccccc12 (stereo not given)", "TGI": "> 100 µM"}
{"molecule": "COc1ccc2nc3ccc(OC)cc3c(SCCCN)c2c1", "TGI": "27.9 µM"}

====

tested on: HL-60(TB) leukemia; assay: NCI tumour cell line growth inhibition, 48 h
value_kind: TGI (µM)

{"molecule": "COc1ccc(S(=O)(=O)N/N=C/C(=O)O)cc1", "value_kind": "TGI", "readout_unit": "µM", "comparison_sign": "=", "readout_value": 463}
{"molecule": "COc1ccc2nc3ccc(OC)cc3c(SCCCN)c2c1", "value_kind": "TGI", "readout_unit": "µM", "comparison_sign": "=", "readout_value": 9.49}
{"molecule": "C/C(=C(/c1ccc(O)cc1)c1ccc(OCCN2CCCC2)cc1)c1ccccc1", "value_kind": "TGI", "readout_unit": "µM", "comparison_sign": "=", "readout_value": 4.97}
{"molecule": "COc1ccccc1C(=O)c1c(N2CCCCC2)c(=O)c1=O", "value_kind": "TGI", "readout_unit": "µM", "comparison_sign": ">", "readout_value": 100}
{"molecule": "COc1cn2c(cc1=O)COc1ccc(-c3ccccc3)cc1-2", "value_kind": "TGI", "readout_unit": "µM", "comparison_sign": ">", "readout_value": 100}
{"molecule": "CC(CS(=O)(=O)Cc1ccccc1)C(N)=O (stereo not given)", "value_kind": "TGI", "readout_unit": "µM", "comparison_sign": ">", "readout_value": 100}
{"molecule": "Cc1ccc(NCSc2ccc(Cl)cc2)cc1", "value_kind": "TGI", "readout_unit": "µM", "comparison_sign": ">", "readout_value": 100}
{"molecule": "CC(=O)NC1C(OCc2ccccc2)OC(COC(=O)CCCCCCCCCCNC(=O)c2cccc3c(=O)c4ccccc4[nH]c23)C(O)C1OC(C)C(=O)NC(C)C(=O)NC(CCC(N)=O)C(N)=O (stereo not given)", "value_kind": "TGI", "readout_unit": "µM", "comparison_sign": ">", "readout_value": 100}
{"molecule": "CC(C)=CC(=O)O[C@@H]1CC(C)(C)CC2C3=CCC4[C@]56CC[C@](O)(OC5)C(C)(C)C6CC[C@@]4(C)C3(C)CC[C@]21C(=O)O (stereo not given in full)", "value_kind": "TGI", "readout_unit": "µM", "comparison_sign": ">", "readout_value": 100}
{"molecule": "COc1cc(C2C3=C(COC3=O)N(CCO)c3cc4c(cc32)CCC4)cc(OC)c1O (stereo not given)", "value_kind": "TGI", "readout_unit": "µM", "comparison_sign": "=", "readout_value": 0.448}

====

Measured TGI, listed per entry.
tested on: 786-0 renal; assay: NCI tumour cell line growth inhibition, 48 h
Where a SMILES comes first, the peptide text is derived from it. [ ]: non-standard residue; d: D form. The star is where a group is joined. ξ: configuration not given here. NMeY = CN[C@@H](Cc1ccc(O)cc1)C(=O)O; Cbz = O=C(OCc1ccccc1)*; ξA = CC(N)C(=O)O

{"compound": "CSc1c(C(C)=O)c(O)n(-c2ccc(Cl)cc2)c(=O)c1C#N", "TGI": "> 100 µM"}
{"compound": "C/C(=N\\N=C(N)N)c1c(C(=O)OCCCCCCOC(=O)c2nc3sccn3c2/C(C)=N/N=C(N)N)nc2sccn12", "TGI": "> 100 µM"}
{"compound": "Cc1ccc(-c2cc(-c3ccc(Cl)cc3)nc(/N=C3\\C(=O)N(CN4CCCCC4)c4ccc(Cl)cc43)n2)cc1", "TGI": "44.6 µM"}
{"compound": "COC(=O)Cc1c(C2=Nc3ccccc3C2(O)CC(=O)OC)[nH]c2ccccc12 (stereo unspecified)", "TGI": "> 100 µM"}
{"compound": "COc1ccc(C[C@@H](C(=O)NCC(N)=O)N(C)C(=O)[C@@H]2CCCN2C(=O)[C@H](CC(C)C)NC(=O)C(C)NC(=O)OCc2ccccc2)cc1 (stereo partly specified) (Cbz-[ξA]LP[NMeY](Me)G-NH2)", "TGI": "> 100 µM"}
{"compound": "CCOC(=O)c1cnc2[nH]c(=O)c3ccccc3n2c1=O", "TGI": "> 100 µM"}
{"compound": "OC(CC(c1ccccc1)c1ccc(Cl)cc1)c1ccc(Cl)cc1 (stereo unspecified)", "TGI": "> 100 µM"}
{"compound": "CN1C(=O)c2cc(Cl)nc3c(NC(=O)c4cccc(Cl)c4)c(Cl)c(NC(=O)c4cccc(Cl)c4)c1c23", "TGI": "7.96 µM"}
{"compound": "CC(=O)O[C@]12CCCCCCC1C1(O)C(O)CCC[C@H]12 (stereo partly specified)", "TGI": "> 100 µM"}
{"compound": "CC[C@]12C=CCN3CC[C@]4(C(=C(C(=O)OC)C1)Nc1cc(O)ccc14)[C@@H]32", "TGI": "40.8 µM"}
{"compound": "CC1=NN(C(=O)CC(=O)Nc2cccc(Cl)c2)C(=O)C1N=Nc1ccc(S(N)(=O)=O)cc1 (stereo unspecified)", "TGI": "> 100 µM"}
{"compound": "CC(=O)Oc1ccc2cc(Oc3ccc(Cl)cc3)c(=O)oc2c1", "TGI": "> 100 µM"}
{"compound": "CC(C)=CCN(N=O)c1ncnc2nc[nH]c12", "TGI": "> 100 µM"}
{"compound": "c1ccc2c(c1)nc(NCCN1CCNCC1)c1c3ccccc3[nH]c21", "TGI": "1.6 µM"}
{"compound": "O=C1OCC(C(=O)c2cccc(O)c2)C1=O (stereo unspecified)", "TGI": "> 100 µM"}
{"compound": "Cc1c(C(C)C)cc(OCCO)cc1C(C)C", "TGI": "63 µM"}
{"compound": "Cc1cnc(Cl)nc1C(C#N)c1nc2ccccc2n1C (stereo unspecified)", "TGI": "> 100 µM"}
{"compound": "O=C1CCSSCCC(=O)Nc2ccccc2N1", "TGI": "> 100 µM"}
{"compound": "COC(=O)C(CC=O)C(=O)C(=O)Nc1cccc(C(F)(F)F)c1 (stereo unspecified)", "TGI": "> 100 µM"}
{"compound": "CN1CC2(CCCCC2)C(O)C12C=CCCC2 (stereo unspecified)", "TGI": "> 100 µM"}
{"compound": "c1ccc2c(c1)CC1c3[nH]c4ccccc4c3CCN21 (stereo unspecified)", "TGI": "> 10 µM"}
